- study_target: Vitamin D3 receptor (Homo sapiens) (UniProt P11473)
- Sequence (P11473 whole entry, looked up): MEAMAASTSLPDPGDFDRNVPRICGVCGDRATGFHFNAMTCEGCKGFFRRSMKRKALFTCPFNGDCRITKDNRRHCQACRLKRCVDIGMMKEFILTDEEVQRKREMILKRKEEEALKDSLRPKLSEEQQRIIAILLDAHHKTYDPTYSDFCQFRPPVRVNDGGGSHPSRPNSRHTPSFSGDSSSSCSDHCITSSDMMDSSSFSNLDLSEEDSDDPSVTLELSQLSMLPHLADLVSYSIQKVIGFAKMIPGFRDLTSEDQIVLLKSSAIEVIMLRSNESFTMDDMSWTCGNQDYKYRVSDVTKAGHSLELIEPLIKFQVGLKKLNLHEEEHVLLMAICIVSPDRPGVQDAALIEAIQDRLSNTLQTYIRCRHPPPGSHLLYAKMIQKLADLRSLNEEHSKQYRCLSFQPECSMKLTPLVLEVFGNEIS
- assay_procedure: qHTS for Inhibitors of the vitamin D receptor (VDR): Hit Validation in Primary Screen (AID 602199); note: potency is the fitted concentration of half-maximal effect
- condition_summary: VDR-coactivator inhibition assay, qHTS confirmation
This is one part of the list. Records with an inconclusive call do not appear. Activity calls are given as the source filed them. Calls come from the whole dose curve; as a rule, active = well fitted inhibition curve with a large enough effect; inconclusive = small, poorly fitted or top-dose-only effect, or another doubt; inactive = no such curve, though single readings can be large or run the other way.
experimental_endpoint: Potency

1) COC(=O)c1sc(-c2ccc(C(C)(C)C)cc2)cc1NC(=O)/C=C/C(=O)O
11.9 µM (active)

Below are some molecules; for each one, tell me its Potency.
1. CSc1nnc(NC(=O)c2nc(S(=O)(=O)Cc3ccc(C)cc3)ncc2Cl)s1
2. O=C(/C=C/c1ccccc1)c1ccccc1O
3. O=C(CCN1CCc2ccccc2C(O)(c2ccccc2)C1)c1ccc2c(c1)OCCO2 (stereo unspecified)
4. CC(=O)N1CC[n+]2c(-c3ccc([N+](=O)[O-])cc3)csc21

OUTPUT:
["7.52 µM (active)", "23.8 µM (active)", "10.6 µM (active)", "10 µM (active)"]

INPUT: Give the measured Potency for CCOc1ccc(N(Cc2ccccc2)C(=O)c2nc(S(C)(=O)=O)ncc2Cl)cc1
OUTPUT: 4.47 µM (active)

###

- study_target: Cytochrome P450 3A4 (Homo sapiens)
- assay_procedure: qHTS Assay for Inhibitors and Substrates of Cytochrome P450 3A4 (AID 884); note: nearly all actives have a fitted effect of over 50% in size
- condition_summary: recombinant CYP3A4, Luciferin-PPXE luminescence; series mostly up to 57.1 µM
Results filed as inconclusive are left out. Activity calls are given as the source filed them. Calls come from the whole dose curve; as a rule, active = well fitted inhibition curve with a large enough effect; inconclusive = small, poorly fitted or top-dose-only effect; inactive = no such curve, though single readings can be large or run the other way.
Lab note: assign the record to one of t for active, f for inactive

1. COC(=O)[C@@H]1C[C@@]2(O)[C@@H](O)[C@@H](O)[C@@H](O)C[C@H]2N1Cc1ccc(C)s1
f

INPUT: Fill in: this test's call for CCC1=C2CC[C@H]3C(=O)N(c4ccccc4)C(=O)[C@H]3[C@H]2[C@@]2(C)C(=NCC(=O)OC)OC(=O)N2C1=O is ___
OUTPUT: t

INPUT: Outcome? COc1ccc(O[C@H]2C=C[C@@H](c3ccccc3)O[C@H]2COC(=O)CC/C(C)=N\O[C@@H](C)CN2CCCCc3nc(C)c(C)cc32)cc1
OUTPUT: t

INPUT: # lookup: test call for CC(C)NC(=O)[C@@H]1C[C@@]1(C)[C@@H](NC(=O)OCc1ccccc1)c1ccccc1
OUTPUT: t

INPUT: Record request — test call for CCC1=C(OC(=O)N(CC)CC)N2C(=O)OC(=NCCOC)[C@]2(C)[C@H]2C1=CC[C@H]1C(=O)N(CC(=O)OC)C(=O)[C@H]12
OUTPUT: t

INPUT: What call does the record list for CCCCCCC(=O)Cc1cc(OC)c(OC)cc1C=C(C(=O)OCC)C(=O)OCC ?
OUTPUT: t

INPUT: Recorded call for CC(=O)c1c(O)cc(O)cc1O ?
OUTPUT: t

INPUT: Lab log entry: COc1ccc(/C=C/C(=O)c2ccc(OC)cc2O)cc1 — outcome as called in the assay?
OUTPUT: t

###

- assay_procedure: qHTS assay for environmental chemicals that activate the Aryl hydrocarbon Receptor (AhR) signaling pathway (AID 651777); note: % of control where 0% means no effect; nearly all actives have a fitted effect of over 15% in size
- condition_summary: 1A2-DRE human hepatoma cells, luciferase, 24 h; hits give high values
Inconclusive results are not listed.
Hi there, I'd appreciate the recorded activation for every entry that follows.
Give bare numbers, in %.

Look over these answered cases.
1) COC(=O)CSc1cc(N=c2sc(=O)n3n2CCCC3)c(F)cc1Cl
-2.58
2) CCCCC(CC)COC(=O)/C=C\C(=O)OCC(CC)CCCC (stereo unspecified)
0.172
3) C=CCCCCCCCCC=O
0.287
4) CC/C=C\CCOC(=O)c1ccccc1O
1.45
5) Nc1c(N=Nc2ccc(S(=O)(=O)CCOS(=O)(=O)O)cc2)c(S(=O)(=O)O)cc2cc(S(=O)(=O)O)c(N=Nc3ccc(S(=O)(=O)CCOS(=O)(=O)O)cc3)c(O)c12
-7.65

// batch mode: one activation value per listed entry
1. CNc1nc(=O)n(C2CCC(O)CC2)c(=O)n1C (stereo unspecified)
2. CCC(O)OCCCOC (stereo unspecified)
3. COC(=O)c1cccc(C)c1S(=O)(=O)NC(=O)Nc1nc(OCC(F)(F)F)nc(N(C)C)n1

OUTPUT:
1. -1.26
2. 0.32
3. 2.46
